system-tested: SARS-COV-2 RBD-MMH (SARS-COV-2 RBD extracellular domain with C-terminal myc-myc-hexahistidine tag) (SARS-CoV-2)
measurement-name: koff (s⁻¹)
State just the number; it will be interpreted in s⁻¹.

Below: 2 binders and their reported koff.
binder | koff (s⁻¹)
mAb14315 (antibody, V domains shown) VH: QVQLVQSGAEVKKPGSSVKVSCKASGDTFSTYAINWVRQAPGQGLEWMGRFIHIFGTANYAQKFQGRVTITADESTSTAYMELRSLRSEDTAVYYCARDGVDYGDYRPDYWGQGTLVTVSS VL: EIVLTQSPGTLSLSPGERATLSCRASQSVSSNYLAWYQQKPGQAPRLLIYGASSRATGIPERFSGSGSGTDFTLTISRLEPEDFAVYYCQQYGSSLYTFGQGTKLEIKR | 0.000946
mAb14281 (antibody, V domains shown) VH: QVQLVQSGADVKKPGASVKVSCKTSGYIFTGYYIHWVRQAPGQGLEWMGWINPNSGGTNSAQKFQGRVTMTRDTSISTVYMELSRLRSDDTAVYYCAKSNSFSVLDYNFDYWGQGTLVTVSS VL: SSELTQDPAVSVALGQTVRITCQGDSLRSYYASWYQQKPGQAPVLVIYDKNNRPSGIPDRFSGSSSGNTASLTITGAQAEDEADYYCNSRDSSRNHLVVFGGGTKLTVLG | 0.00734

Prompt: Answer with the recorded koff for the binder listed here: mAb14283 (antibody, V domains shown) VH: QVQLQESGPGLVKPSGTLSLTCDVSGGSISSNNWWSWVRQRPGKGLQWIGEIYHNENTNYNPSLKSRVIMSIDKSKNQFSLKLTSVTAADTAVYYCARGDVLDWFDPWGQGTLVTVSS VL: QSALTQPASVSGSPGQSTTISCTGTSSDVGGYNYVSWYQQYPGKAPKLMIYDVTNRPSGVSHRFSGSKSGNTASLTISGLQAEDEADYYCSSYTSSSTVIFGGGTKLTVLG
Response: 0.002
